# experiment: Oral bioavailability in Sprague-Dawley rat at 2 mg/kg by LC-MS/MS method
# Format: ADME, organism-based
# test-context: in vivo
metric: bioavailability

INSERT INTO results (molecule_smiles, value) VALUES
  ('CC(C)[C@@H](CS(=O)(=O)C(C)C)N1C(=O)[C@@](C)(CC(=O)O)C[C@H](c2cccc(Cl)c2)[C@H]1c1ccc(Cl)cc1', '> 42%');

* * *

# experiment: Oral bioavailability in Beagle dog at 2 mg/kg by LC-MS/MS method
# Format: ADME, organism-based, Canis lupus familiaris
# test-context: in vivo
metric: bioavailability

INSERT INTO assay_data (molecule_smiles, value) VALUES
  ('CC(C)[C@@H](CS(=O)(=O)C(C)C)N1C(=O)[C@@](C)(CC(=O)O)C[C@H](c2cccc(Cl)c2)[C@H]1c1ccc(Cl)cc1', '18%');
